# Subject Of Test: Prostaglandin G/H synthase 1 (Mus musculus, UniProt P22437)
# Sequence (P22437 whole entry): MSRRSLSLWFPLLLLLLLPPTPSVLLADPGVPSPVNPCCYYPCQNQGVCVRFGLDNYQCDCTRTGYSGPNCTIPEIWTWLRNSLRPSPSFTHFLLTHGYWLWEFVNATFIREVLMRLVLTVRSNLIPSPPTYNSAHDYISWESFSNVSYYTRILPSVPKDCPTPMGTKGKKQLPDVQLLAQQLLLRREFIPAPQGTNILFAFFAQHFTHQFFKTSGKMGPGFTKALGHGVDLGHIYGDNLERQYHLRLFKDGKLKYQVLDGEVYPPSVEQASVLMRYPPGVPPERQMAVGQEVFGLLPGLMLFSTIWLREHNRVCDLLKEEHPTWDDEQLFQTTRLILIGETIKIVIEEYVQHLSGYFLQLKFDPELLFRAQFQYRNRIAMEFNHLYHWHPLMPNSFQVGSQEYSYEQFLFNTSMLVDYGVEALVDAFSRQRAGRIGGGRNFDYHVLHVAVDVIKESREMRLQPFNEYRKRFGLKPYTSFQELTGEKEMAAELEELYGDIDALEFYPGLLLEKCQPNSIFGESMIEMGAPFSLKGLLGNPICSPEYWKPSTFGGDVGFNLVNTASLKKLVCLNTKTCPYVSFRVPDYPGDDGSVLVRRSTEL
pIC50: −log10 of the molar value.

| Compound | Subject Of Test | pIC50 |
| --- | --- | --- |
| CS(=O)(=O)c1ccc(C2=C(c3ccccc3)C(=O)C3(CCCCC3)O2)cc1 | Prostaglandin G/H synthase 1 (Mus musculus, UniProt P22437) | 4.58 |
| CCC1(C)OC(c2ccc(S(C)(=O)=O)cc2)=C(c2cccc(C(F)(F)F)c2)C1=O (centres undefined) | Prostaglandin G/H synthase 1 (Mus musculus, UniProt P22437) | 4.63 |
| CC1(C)OC(c2ccc(S(N)(=O)=O)cc2)=C(c2ccsc2)C1=O | Prostaglandin G/H synthase 1 (Mus musculus, UniProt P22437) | 4.86 |
| CC1(C)OC(c2ccc(S(N)(=O)=O)cc2)=C(c2ccc(F)c(F)c2)C1=O | Prostaglandin G/H synthase 1 (Mus musculus, UniProt P22437) | 5.30 |
| CC1(C)OC(c2ccc(S(N)(=O)=O)cc2)=C(c2cccc(C(F)(F)F)c2)C1=O | Prostaglandin G/H synthase 1 (Mus musculus, UniProt P22437) | 5.70 |
| CCC1(CC)OC(c2ccc(S(C)(=O)=O)cc2)=C(c2cccc(C)c2)C1=O | Prostaglandin G/H synthase 1 (Mus musculus, UniProt P22437) | 4.58 |
| CC1(C)OC(c2ccc(S(N)(=O)=O)cc2F)=C(c2ccccc2)C1=O | Prostaglandin G/H synthase 1 (Mus musculus, UniProt P22437) | 4.26 |
| CC1(C)OC(c2ccc(S(C)(=O)=O)cc2)=C(c2ccc(F)c(Cl)c2)C1=O | Prostaglandin G/H synthase 1 (Mus musculus, UniProt P22437) | 5.12 |
| CC1(C)OC(c2ccc(S(N)(=O)=O)cc2)=C(c2ccccc2)C1=O | Prostaglandin G/H synthase 1 (Mus musculus, UniProt P22437) | 6.75 |
